tested-target: HLA-A*2902 (Homo sapiens, UniProt P04439, A270S/D101N/D185E/E176V/E277Q/E87Q/F33T/G231S/H175R/I121M/I218V/I322F/K168Q/L300P/L318F/M331R/P208A/P217A/Q86L/T323A/T345S/V100A/V358M)
measurement-notes: biochemical
Assay type: binding
Ends that are not written are not given here.
property-label: pIC50
In textbook form, pIC50 equals minus log to base ten of the concentration in mol/L.

For record FYRYGFVANF [PB1.496] the listed pIC50 is 6.09

For record LVSDGGPNLY [PB1.590] the listed pIC50 is 6.32

For record FYIQMCTEL [NP.39] the listed pIC50 is 5.81

For record YSHGTGTGY [PB1.30] the listed pIC50 is 6.31
